measured-target: human TLR9 (Homo sapiens)
Sequence (Q9NR96 26-1032): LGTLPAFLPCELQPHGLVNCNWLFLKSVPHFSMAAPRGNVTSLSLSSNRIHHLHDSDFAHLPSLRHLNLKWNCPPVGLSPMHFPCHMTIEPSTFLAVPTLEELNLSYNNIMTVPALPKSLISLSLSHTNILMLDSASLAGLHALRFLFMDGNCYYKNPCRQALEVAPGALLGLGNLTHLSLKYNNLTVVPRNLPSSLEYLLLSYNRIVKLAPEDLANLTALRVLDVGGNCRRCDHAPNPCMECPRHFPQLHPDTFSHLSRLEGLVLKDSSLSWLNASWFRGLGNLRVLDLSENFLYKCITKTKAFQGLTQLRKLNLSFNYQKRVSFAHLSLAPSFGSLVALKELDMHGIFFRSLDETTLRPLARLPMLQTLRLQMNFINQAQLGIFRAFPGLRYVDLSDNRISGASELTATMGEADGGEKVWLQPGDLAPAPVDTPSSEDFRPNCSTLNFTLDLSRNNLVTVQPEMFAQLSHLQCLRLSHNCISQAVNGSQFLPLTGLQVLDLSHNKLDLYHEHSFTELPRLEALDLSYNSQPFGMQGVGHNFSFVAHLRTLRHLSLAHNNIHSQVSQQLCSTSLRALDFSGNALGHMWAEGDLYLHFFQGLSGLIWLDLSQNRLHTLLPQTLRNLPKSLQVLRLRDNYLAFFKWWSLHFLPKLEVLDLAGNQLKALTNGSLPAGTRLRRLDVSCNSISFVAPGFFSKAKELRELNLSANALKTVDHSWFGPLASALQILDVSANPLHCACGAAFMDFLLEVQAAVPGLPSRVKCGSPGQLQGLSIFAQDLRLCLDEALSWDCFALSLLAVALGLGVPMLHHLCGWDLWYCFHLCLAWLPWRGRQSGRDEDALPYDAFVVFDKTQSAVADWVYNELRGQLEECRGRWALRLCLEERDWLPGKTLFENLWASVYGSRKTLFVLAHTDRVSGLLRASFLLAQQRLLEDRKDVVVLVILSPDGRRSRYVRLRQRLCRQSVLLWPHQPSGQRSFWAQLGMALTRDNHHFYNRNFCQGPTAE
assay-notes: HEK293-Blue-hTLR-9 cells assay (SEAP reporter, ODN2006 stimulation)
reported-conditions: HEK293-Blue-hTLR9 cells, ODN2006 ligand, 20 hrs; read-out: HEK/hTLR9 IC50
measured-parameter: IC50 (nM)

Example results:
C[C@@H]1CN(c2ccc(C#N)c3ncccc23)C[C@@H]2CCN(Cc3ccc(N4CCNCC4)cn3)CCN21 [Example 19] :: 45.8
CO[C@@H]1CN(c2cnc(CN3CC[C@H]4CN(c5ccc(C#N)c6ncccc56)C[C@@H](C)N4CC3)c(F)c2)C[C@H]1N [Example 24] :: 60.9
C[C@@H]1CN(c2ccc(C#N)c3ncccc23)C[C@@H]2CCN(Cc3ncc(N4CCNCC4)cn3)CCN21 [Example 13] :: 96.4
CO[C@@H]1CN(c2cnc(CN3CC[C@H]4CN(c5ccc(C#N)n6ncc(F)c56)C[C@@H](C)N4CC3)c(F)c2)C[C@H]1N [Example 27] :: 65.4
C[C@@H]1CN(c2ccc(C#N)c3ncccc23)C[C@@H]2CCN(Cc3cnc(N4CCNCC4)nc3)CCN21 [Example 14] :: 70.5
C[C@@H]1CN(c2ccc(C#N)c3ncccc23)C[C@@H]2CCN(Cc3ncc(N4CCNCC4)cc3F)CCN21 [Example 23] :: 39.1

A = C[C@@H]1CN(c2ccc(C#N)c3ncccc23)C[C@@H]2CCN(c3ccc(N4CCNCC4)nc3)CCN21 [Example 1]
B = C[C@@H]1CN(c2ccc(C#N)c3ncccc23)C[C@@H]2CCN(Cc3cnc(N4CCNCC4)cn3)CCN21 [Example 15]
C = C[C@@H]1CN(c2ccc(C#N)c3ncccc23)C[C@@H]2CCN(c3cc4c(cn3)CNCC4)CCN21 [Example 7]
// ranking: key=IC50, reverse=True Response field: labels, in requested order.
A, C, B
(A: 207 nM, C: 81.9 nM, B: 36.1 nM)
